The measurements presented in this section are drawn from patent JP2011231022A.

- procedure_text: Oral absorption in fasted male ICR mice, plasma concentration by LC/MS (Example 7)
- Format: in vivo
- measurement_conditions: mouse (ICR male, fasted), 100 mg/kg oral, read-out: time of maximum plasma concentration (converted)
result_type: Tmax (min)
I only need the number, in min, no unit after it.

Entry CC1N=C(NCCC[C@H](N)C(=O)O)NC1=O (stereo partly shown) ; Tmax = 15
